Source: patent US4452813A

# test.details: Acute toxicity, oral, one week
# test.settings: rat, in vivo, 5% gum arabic suspension
# Excerpt: Six-week-old male Wister rats weighing 180 to 200 g are used, 5 rats in each group. The present compound is suspended in a 5% aqueous solution of gum arabic, and the suspension is orally given to the rats. For one week after the start of the test, the rats are checked evey day for general toxicity symptoms, body weight and death to determine the LD50 value.
property.label: LD50 at 168 h

Short answer for CC(C)C[C@H]1CC[C@H](C(=O)COS(=O)(=O)c2ccccc2)CC1 [Compound 31] : LD50 at 168 h was > 3000 mg/kg

Short answer for Cc1ccc(S(=O)(=O)OCC(=O)C(C)CC2CCCCC2)cc1 (centres unmarked) [Compound 2] : LD50 at 168 h was > 2000 mg/kg

Short answer for CC(C)(C)[C@H]1CC[C@H](C(=O)COS(=O)(=O)c2ccccc2)CC1 [Compound 35] : LD50 at 168 h was > 3000 mg/kg

Short answer for Cc1ccc(S(=O)(=O)OCC(=O)[C@H]2CC[C@H](C(C)(C)C)CC2)cc1 [Compound 37] : LD50 at 168 h was > 3000 mg/kg

Short answer for CCC1CCC(C(=O)COS(=O)(=O)c2ccccc2)CC1 (centres unmarked) [Compound 22] : LD50 at 168 h was > 2000 mg/kg

Short answer for CCOc1ccc(S(=O)(=O)OCC(=O)CC2CCC(C)CC2)cc1 (centres unmarked) [Compound 16] : LD50 at 168 h was > 3000 mg/kg

Short answer for CCOc1ccc(S(=O)(=O)OCC(=O)C(CC)CC2CCCCC2)cc1 (centres unmarked) [Compound 7] : LD50 at 168 h was > 3000 mg/kg

Short answer for CCC(C)[C@H]1CC[C@H](C(=O)COS(=O)(=O)c2ccccc2)CC1 (some centres unmarked) [Compound 33] : LD50 at 168 h was > 3000 mg/kg

----------
# test.details: Acute toxicity, oral, one week
# test.settings: rat, in vivo, 5% gum arabic suspension
What LD50 at 168 h was measured for each of the following?

Short answer for Cc1cc(C)c(S(=O)(=O)OCC(=O)CC(C)C2CCCCC2)c(C)c1 (stereo not shown) [Compound 12] : LD50 at 168 h was > 3000 mg/kg

Short answer for CCOc1ccc(S(=O)(=O)OCC(=O)[C@H]2CC[C@H](C(C)C)CC2)cc1 [Compound 27] : LD50 at 168 h was > 3000 mg/kg

Short answer for CCOc1ccc(S(=O)(=O)OCC(=O)C(C)CC2CCCCC2)cc1 (stereo not shown) [Compound 4] : LD50 at 168 h was > 3000 mg/kg

Short answer for COc1ccc(S(=O)(=O)OCC(=O)CC(C)C2CCCCC2)cc1 (stereo not shown) [Compound 10] : LD50 at 168 h was > 3000 mg/kg

Short answer for CCOc1ccc(S(=O)(=O)OCC(=O)CC2CCCCC2C)cc1 (stereo not shown) [Compound 19] : LD50 at 168 h was > 3000 mg/kg

Short answer for CC(C)C1CCC(CC(=O)COS(=O)(=O)c2ccccc2)CC1 (stereo not shown) [Compound 21] : LD50 at 168 h was > 3000 mg/kg

Short answer for Cc1ccc(S(=O)(=O)OCC(=O)CC2CCCCC2C)cc1 (stereo not shown) [Compound 18] : LD50 at 168 h was > 2000 mg/kg

Short answer for CCC(CC1CCCCC1)C(=O)COS(=O)(=O)c1ccccc1 (stereo not shown) [Compound 5] : LD50 at 168 h was > 2000 mg/kg

Short answer for CCOc1ccc(S(=O)(=O)OCC(=O)C2CCC(CC)CC2)cc1 (stereo not shown) [Compound 23] : LD50 at 168 h was > 3000 mg/kg

Short answer for CCC(C(=O)COS(=O)(=O)c1ccc(C)cc1)C1CCC(C)CC1 (stereo not shown) [Compound 13] : LD50 at 168 h was > 2000 mg/kg

Short answer for Cc1ccc(S(=O)(=O)OCC(=O)CC(C)C2CCCCC2)cc1 (stereo not shown) [Compound 9] : LD50 at 168 h was > 2000 mg/kg

Short answer for CC(C)[C@H]1CC[C@H](C(=O)COS(=O)(=O)c2ccccc2)CC1 [Compound 25] : LD50 at 168 h was > 3000 mg/kg

Short answer for CC1CCCCC1CC(=O)COS(=O)(=O)c1ccccc1 (stereo not shown) [Compound 17] : LD50 at 168 h was > 2000 mg/kg

Short answer for Cc1ccc(S(=O)(=O)OCC(=O)[C@H]2CC[C@@H](C(C)(C)C)CC2)cc1 [Compound 36] : LD50 at 168 h was > 3000 mg/kg

Short answer for CC(C)C[C@H]1CC[C@@H](C(=O)COS(=O)(=O)c2ccccc2)CC1 [Compound 30] : LD50 at 168 h was > 3000 mg/kg

Short answer for Cc1cc(C)c(S(=O)(=O)OCC(=O)[C@H]2CC[C@@H](C(C)C)CC2)c(C)c1 [Compound 28] : LD50 at 168 h was > 3000 mg/kg

Short answer for CC(CC1CCCCC1)C(=O)COS(=O)(=O)c1ccccc1 (stereo not shown) [Compound 1] : LD50 at 168 h was > 2000 mg/kg

Short answer for CC(C)[C@H]1CC[C@@H](C(=O)COS(=O)(=O)c2ccccc2)CC1 [Compound 24] : LD50 at 168 h was > 3000 mg/kg

Short answer for CCC(CC1CCCCC1)C(=O)COS(=O)(=O)c1ccc(OC)cc1 (stereo not shown) [Compound 6] : LD50 at 168 h was > 3000 mg/kg

----------
# experimental.system: Chymotripsin (Bos taurus, UniProt P00766)
# test.details: Chymotripsin inhibiting activity (hydrolysis of ATEE)
# Format: biochemical
# test.settings: 0.5 h; 1 × 10^-4 mol; 20 min preincubation, ATEE 30 min, 37° C., pH 8.0
# Experimental: 2. Chymotripsin Inhibiting Activity Chymotripsin (0.1 unit) serving as an enzyme solution is added to a specified quantity of buffer solution (pH 8.0) containing 0.1 mole of trishydrochloric acid. To the mixture is further added a 50% ethanol solution of the compound of the invention. The mixture is reacted at 37° C. for 20 minutes. […] After the completion of the reaction, the amount of remaining ATEE is determined by the same hydroxamic acid method as above. […]
What inhibition at 100 µM was measured for each of the following?
Numeric answer only, unit % assumed.

Short answer for CCOc1ccc(S(=O)(=O)OCC(=O)CC(C)C2CCCCC2)cc1 (centres unmarked) : inhibition at 100 µM was 19

Short answer for "CCOc1ccc(S(=O)(=O)OCC(=O)[C@H]2CC[C@@H](C(C)C)CC2)cc1" : inhibition at 100 µM was 14

Short answer for Cc1ccc(S(=O)(=O)OCC(=O)CC2CCC(C)CC2)cc1 (centres unmarked) : inhibition at 100 µM was 94

Short answer for Cc1ccc(S(=O)(=O)OCC(=O)CC2CCCCC2C)cc1 (centres unmarked) : inhibition at 100 µM was 72

Short answer for CC(CC1CCCCC1)C(=O)COS(=O)(=O)c1ccccc1 (centres unmarked) : inhibition at 100 µM was 100

Short answer for "CC(C)[C@H]1CC[C@H](C(=O)COS(=O)(=O)c2ccccc2)CC1" : inhibition at 100 µM was 62

Short answer for Cc1cc(C)c(S(=O)(=O)OCC(=O)CC(C)C2CCCCC2)c(C)c1 (centres unmarked) : inhibition at 100 µM was 24

Short answer for CCC(C(=O)COS(=O)(=O)c1ccc(C)cc1)C1CCC(C)CC1 (centres unmarked) : inhibition at 100 µM was 50

Short answer for "CC(C)C[C@H]1CC[C@H](C(=O)COS(=O)(=O)c2ccccc2)CC1" : inhibition at 100 µM was 43

Short answer for "CC(C)[C@H]1CC[C@@H](C(=O)COS(=O)(=O)c2ccccc2)CC1" : inhibition at 100 µM was 16

Short answer for CC1CCCCC1CC(=O)COS(=O)(=O)c1ccccc1 (centres unmarked) : inhibition at 100 µM was 97

Short answer for CCC(C)[C@H]1CC[C@@H](C(=O)COS(=O)(=O)c2ccccc2)CC1 (some centres unmarked) : inhibition at 100 µM was 13

Short answer for COc1ccc(S(=O)(=O)OCC(=O)C(C)CC2CCCCC2)cc1 (centres unmarked) : inhibition at 100 µM was 93

Short answer for "Cc1ccc(S(=O)(=O)OCC(=O)[C@H]2CC[C@H](C(C)(C)C)CC2)cc1" : inhibition at 100 µM was 22

Short answer for Cc1ccc(S(=O)(=O)OCC(=O)C(C)CC2CCCCC2)cc1 (centres unmarked) : inhibition at 100 µM was 90

Short answer for CCOc1ccc(S(=O)(=O)OCC(=O)C2CCC(CC)CC2)cc1 (centres unmarked) : inhibition at 100 µM was 24

Short answer for CCC(CC1CCCCC1)C(=O)COS(=O)(=O)c1ccccc1 (centres unmarked) : inhibition at 100 µM was 12

Short answer for CC(CC(=O)COS(=O)(=O)c1ccccc1)C1CCCCC1 (centres unmarked) : inhibition at 100 µM was 31

Short answer for COc1ccc(S(=O)(=O)OCC(=O)CC(C)C2CCCCC2)cc1 (centres unmarked) : inhibition at 100 µM was 22

Short answer for CCC1CCC(C(=O)COS(=O)(=O)c2ccccc2)CC1 (centres unmarked) : inhibition at 100 µM was 58

Short answer for CCOc1ccc(S(=O)(=O)OCC(=O)CC2CCC(C)CC2)cc1 (centres unmarked) : inhibition at 100 µM was 81

Short answer for "Cc1ccc(S(=O)(=O)OCC(=O)[C@H]2CC[C@@H](C(C)(C)C)CC2)cc1" : inhibition at 100 µM was 44

Short answer for "CCOc1ccc(S(=O)(=O)OCC(=O)[C@H]2CC[C@H](C(C)C)CC2)cc1" : inhibition at 100 µM was 35

Short answer for "CC(C)C[C@H]1CC[C@@H](C(=O)COS(=O)(=O)c2ccccc2)CC1" : inhibition at 100 µM was 30

Short answer for Cc1ccc(S(=O)(=O)OCC(=O)CC(C)C2CCCCC2)cc1 (centres unmarked) : inhibition at 100 µM was 31

Short answer for CCOc1ccc(S(=O)(=O)OCC(=O)C(CC)CC2CCCCC2)cc1 (centres unmarked) : inhibition at 100 µM was 13
